These measurements were taken from patent US11028090B2.

# reported pIC50; entries follow
TESTED_SYSTEM: BRD4 (BD1+BD2) bromodomain (Homo sapiens (Human))
ASSAY_COMMENT: BRD4 binding inhibition (AlphaScreen, GST-BRD4 vs tetraacetylated histone H4 peptide)
EXPERIMENTAL_CONDITIONS: GST-BRD4 (BD1+BD2) vs biotinylated acetyl-histone H4 peptide, AlphaScreen; read-out: BRD4 IC50
pIC50: −log10 of the molar value.

MOLECULE: CCC(F)(F)C(=O)NCCCCNc1nc2cc(-c3nc4ccccc4n3C)ccc2n2c(C)nnc12 [Example 233]
pIC50: 8.70

MOLECULE: Cc1nnc2c(NCCCCNC(=O)c3ccccc3Cl)nc3cc(OC(C)C)ccc3n12 [Example 454]
pIC50: 7.96

MOLECULE: Cc1nnc2c(NCCCCNC(=O)OC(C)(C)C)nc3ccc(N)cc3n12 [Example 542]
pIC50: 7.21

MOLECULE: CCC(C)CC(=O)NCCCCNc1nc2cc(OC)ccc2n2c(C(F)(F)F)nnc12 (centres unmarked) [Example 591]
pIC50: 7.55

MOLECULE: COCCOc1cc2nc(NCCCCNC(=O)OCC(C)C)c3nnc(C)n3c2cc1OCCOC [Example 168]
pIC50: 7.80

MOLECULE: COc1cc(C)c2nc(NCCCCNC(=O)CC(C)C)c3nnc(C)n3c2c1 [Example 160]
pIC50: 7.55

MOLECULE: COc1cc2nc(NCCCCNC(=O)[C@@H](O)C(C)C)c3nnc(C)n3c2cc1OC [Example 83]
pIC50: 8.70

MOLECULE: COCCOc1cc2nc(NCCCCNC(=O)OC(C)C)c3nnc(C)n3c2cc1OCCOC [Example 165]
pIC50: 7.59

MOLECULE: Cc1nnc2c(NCCCCNC(=O)C(C)(C)C)nc3ccccc3n12 [Example 3]
pIC50: 7.55

MOLECULE: COCCOc1ccc2c(c1)nc(NCCCCNC(=O)Cc1cccs1)c1nnc(C)n12 [Example 406]
pIC50: 7.85

MOLECULE: Cc1nnc2c(NCCCCNC(=O)Cc3cccs3)nc3cc(-n4ccnc4)ccc3n12 [Example 496]
pIC50: 8.00

MOLECULE: COc1cc2nc(NCCCCNC(=O)Cc3cccs3)c3nnc(C)n3c2cc1C(F)(F)F [Example 480]
pIC50: 8.05

MOLECULE: Cc1nnc2c(NCCCCN)nc3cc4c(cc3n12)OCCO4 [Example 179, ditrifluoroacetic acid]
pIC50: 7.46

MOLECULE: Cc1nnc2c(NCCCCNC(=O)NC(C)(C)C)nc3ccc(F)cc3n12 [Example 52]
pIC50: 7.15

MOLECULE: COc1ccc2c(c1)nc(NCCCCC(=O)NC(C)C)c1nnc(C)n12 [Example 654]
pIC50: 7.96

MOLECULE: Cc1nnc2c(NCCCCNC(=O)C(C)(C)C)nc3cc(NC(=O)C(C)C)ccc3n12 [Example 247]
pIC50: 7.51

MOLECULE: CCC(CC)C(=O)NCCCCNc1nc2cc(OC)ccc2n2c(C)nnc12 [Example 290]
pIC50: 7.64

###

# reported IC50; entries follow
TESTED_SYSTEM: BRD4 (BD1+BD2) bromodomain (Homo sapiens (Human), UniProt O60885)
ASSAY_COMMENT: BRD4 binding inhibition (AlphaScreen, GST-BRD4 vs tetraacetylated histone H4 peptide)
EXPERIMENTAL_CONDITIONS: GST-BRD4 (BD1+BD2) / biotinylated acetyl-histone H4 (Lys5,8,12,16) peptide; read-out: IC50, BRD4 binding inhibition

MOLECULE: CC(=O)Nc1ccc2nc(NCCCCNC(=O)C(C)(C)C)c3nnc(C)n3c2c1
IC50: ≤ 0.05 µM
//
MOLECULE: COc1ccc2c(c1)nc(NCCCCNC(=O)[C@@H](NC(=O)[C@H](C)O)C(C)C)c1nnc(C)n12
IC50: ≤ 0.01 µM
//
MOLECULE: Cc1nnc2c(NCCCCNC(=O)[C@@H](O)C(C)C)nc3cc(-c4nc5ccccc5n4C)ccc3n12
IC50: ≤ 0.01 µM
//
MOLECULE: Cc1nnc2c(NCCCCNC(=O)[C@@H](NC(=O)OC(C)C)C(C)C)nc3cc(N4C[C@@H](C)O[C@@H](C)C4)ccc3n12
IC50: ≤ 0.05 µM
//
MOLECULE: Cc1nnc2c(NCCCCNC(=O)c3ccc(Cl)nc3)nc3ccccc3n12
IC50: ≤ 0.05 µM
//
MOLECULE: COC(=O)c1ccc2nc(NCCCCNC(=O)OC(C)(C)C)c3nnc(C)n3c2c1
IC50: ≤ 0.05 µM
//
MOLECULE: CCC(C)OC(=O)NCCCCNc1nc2cc(OC)c(OC)cc2n2c(C)nnc12 (stereo not drawn)
IC50: ≤ 0.05 µM
//
MOLECULE: COCCOc1ccc2c(c1)nc(NCCCCNC(=O)OCc1ccccc1)c1nnc(C)n12
IC50: ≤ 0.05 µM
//
MOLECULE: C=CCOC(=O)NCCCCNc1nc2cc(OCCOC)ccc2n2c(C)nnc12
IC50: ≤ 0.05 µM
//
MOLECULE: CCC(F)(F)C(=O)NCCCCNc1nc2cc(OCCOC)ccc2n2c(C)nnc12
IC50: ≤ 0.01 µM
//
MOLECULE: Cc1nnc2c(NCCCCNC(=O)[C@@H](O)C(C)C)nc3cc(F)c(F)cc3n12
IC50: ≤ 0.01 µM
//
MOLECULE: Cc1nnc2c(NCCCCNC(=O)[C@@H](F)C(C)C)nc3cc(N4CCOCC4)ccc3n12
IC50: ≤ 0.05 µM
//
MOLECULE: COc1ccc2c(c1)nc(NCCCCC(=O)NC(C)C)c1nnc(C)n12
IC50: ≤ 0.05 µM
//
MOLECULE: Cc1nnc2c(NCCCCNC(=O)c3ccccc3Cl)nc3cc(OC(F)(F)F)ccc3n12
IC50: ≤ 0.05 µM
//
MOLECULE: Cc1nnc2c(NCCCCNC(=O)CC(C)(C)C)nc3cc(OC(F)(F)F)ccc3n12
IC50: ≤ 0.05 µM
//
MOLECULE: Cc1noc(C)c1-c1ccc2c(c1)nc(NCCCCNC(=O)OC(C)(C)C)c1nnc(C)n12
IC50: ≤ 0.01 µM
//
MOLECULE: Cc1nnc2c(NCCCCNC(=O)OC(C)(C)C)nc3ccc(Cl)cc3n12
IC50: ≤ 0.05 µM
//
MOLECULE: COc1ccc2c(c1)nc(NCCCCNC(=O)OC(C)(C)C)c1nnc(C)n12
IC50: ≤ 0.05 µM
//
MOLECULE: CCC(C)C(=O)NCCCCNc1nc2cc(OC(C)C)ccc2n2c(C)nnc12 (stereo not drawn)
IC50: ≤ 0.05 µM
//
MOLECULE: COc1cc2nc(NCCCCNC(=O)CC(C)C)c3nnc(C)n3c2cc1NC(=S)NC(C)C
IC50: ≤ 0.05 µM
//
MOLECULE: COc1ccc2c(c1)nc(NCCCCNC(=O)CC(C)C)c1nnc(C(F)(F)F)n12
IC50: ≤ 0.05 µM
//
MOLECULE: Cc1nnc2c(NCCCCN)nc3cc4c(cc3n12)OCCO4
IC50: ≤ 0.05 µM
//
MOLECULE: Cc1nnc2c(NCCCCNC(=O)C(C)(C)O)nc3cc(-c4nc5ccccc5n4C)ccc3n12
IC50: ≤ 0.05 µM
//
MOLECULE: COc1ccc2c(c1)nc(NCCCCC(=O)NC(C)(C)C)c1nnc(C)n12
IC50: ≤ 0.05 µM
//
MOLECULE: COc1ccc2c(c1)nc(NCCCCNC(=O)[C@@H](NC(=O)OC(C)C)C(C)C)c1nnc(C)n12
IC50: ≤ 0.01 µM
//
MOLECULE: COc1cc2nc(NCCCCNC(=O)[C@@H](O)C(C)C)c3nnc(C)n3c2cc1C(F)(F)F
IC50: ≤ 0.01 µM
//
MOLECULE: Cc1nnc2c(NCCCCNC(=O)OC(C)(C)C)nc3cc(C(=O)Nc4ccccc4)ccc3n12
IC50: ≤ 0.05 µM
//
MOLECULE: COc1ccc2c(c1)nc(NCCCCNC(=O)OC(C)C)c1nnc(C(C)C)n12
IC50: ≤ 0.05 µM
//
MOLECULE: Cc1nnc2c(NCCCCNC(=O)CC(C)C)nc3cc(NCCCC#N)ccc3n12
IC50: ≤ 0.01 µM
//
MOLECULE: Cc1nnc2c(NCCCCNC(=O)CC(C)C)nc3cc(F)c(F)cc3n12
IC50: ≤ 0.01 µM
//
MOLECULE: Cc1nnc2c(NCCCCNC(=O)OC3CCCC3)nc3cc(OC(C)C)ccc3n12
IC50: ≤ 0.05 µM
//
MOLECULE: Cc1nnc2c(NCCCCNC(=O)OC(C)(C)C)nc3cc4c(cc3n12)OCCO4
IC50: ≤ 0.05 µM
//
MOLECULE: COc1ccc2c(c1)nc(NCCCCNC(=O)[C@H](C(C)C)N1CCC(O)C1)c1nnc(C)n12 (stereo partly drawn)
IC50: ≤ 0.05 µM
